Test system: RPA70 mRNA
Assay: RPA70 mRNA expression in A549 cells, Northern blot
Type: cell-based, human
Settings: 400 nM oligonucleotide with LIPOFECTIN, RNA 24 h after addition
In the oligonucleotide strings, read from the 5' end, every base follows the letter of its sugar. An asterisk marks phosphorothioate; unmarked linkages are phosphodiester. Other units and linkages are bracketed, terminal groups are in braces. A string of capitals states the bases alone. d = 2'-deoxy (DNA)
Exercise: for every item that follows, state its recorded % mRNA INHIBITION.
Give bare numbers, in %.

State the recorded % mRNA INHIBITION for every item in the following list.
1. ISIS 12782: phosphorothioate oligodeoxynucleotide TGATGCTCATGACCAGCCTT, SEQ ID NO 7, coding 1881-1900 (dT*dG*dA*dT*dG*dC*dT*dC*dA*dT*dG*dA*dC*dC*dA*dG*dC*dC*dT*dT)
2. ISIS 12783: phosphorothioate oligodeoxynucleotide ACTGCTCCTCTCACATCAAT, SEQ ID NO 8, STOP 1911-1930 (dA*dC*dT*dG*dC*dT*dC*dC*dT*dC*dT*dC*dA*dC*dA*dT*dC*dA*dA*dT)
3. ISIS 12784: phosphorothioate oligodeoxynucleotide GATTCCATTCTGCCTATTTG, SEQ ID NO 9, 3'-UTR 1951-1970 (dG*dA*dT*dT*dC*dC*dA*dT*dT*dC*dT*dG*dC*dC*dT*dA*dT*dT*dT*dG; antisense)
4. ISIS 12786: phosphorothioate oligodeoxynucleotide GCACGAGGGAGGAAATTGCT, SEQ ID NO 11, 3'-UTR 2041-2060 (dG*dC*dA*dC*dG*dA*dG*dG*dG*dA*dG*dG*dA*dA*dA*dT*dT*dG*dC*dT; antisense)

Key:
1: 92; 2: 72; 3: 57; 4: 27

====

Tested on: RPA70 mRNA
Test: RPA70 mRNA expression in A549 cells, Northern blot
Type: cell-based, human
Details: 400 nM oligonucleotide with LIPOFECTIN, RNA 24 h after addition
In the oligonucleotide strings, read from the 5' end, every base follows the letter of its sugar. An asterisk marks phosphorothioate; unmarked linkages are phosphodiester. Other units and linkages are bracketed, terminal groups are in braces. A string of capitals states the bases alone. d = 2'-deoxy (DNA)
assay.readout: % mRNA EXPRESSION
# do not omit the unit; it follows the number

Please review the entries below; each comes with its answer.
ISIS 12786: phosphorothioate oligodeoxynucleotide GCACGAGGGAGGAAATTGCT, SEQ ID NO 11, 3'-UTR 2041-2060 (dG*dC*dA*dC*dG*dA*dG*dG*dG*dA*dG*dG*dA*dA*dA*dT*dT*dG*dC*dT; antisense) : 73%
ISIS 12779: phosphorothioate oligodeoxynucleotide GACCATGGCTCCACCGCCAA, SEQ ID NO 4, targets RPA70 AUG 0056-0075 (dG*dA*dC*dC*dA*dT*dG*dG*dC*dT*dC*dC*dA*dC*dC*dG*dC*dC*dA*dA) : 35%
ISIS 12783: phosphorothioate oligodeoxynucleotide ACTGCTCCTCTCACATCAAT, SEQ ID NO 8, STOP 1911-1930 (dA*dC*dT*dG*dC*dT*dC*dC*dT*dC*dT*dC*dA*dC*dA*dT*dC*dA*dA*dT) : 28%

For the next question, use this substance.
Given item ISIS 12790: phosphorothioate oligodeoxynucleotide TGGTCTGCAGTTAGGGTCAG, SEQ ID NO 15, 3'-UTR 2230-2249, non-allele specific (DNA, all phosphorothioate, methylation of C not given here) , the value recorded as its % mRNA EXPRESSION is 6%

====

System: RPA70 mRNA
Test: RPA70 mRNA expression in A549 cells, Northern blot
Assay type: cell-based, human
Conditions: 400 nM oligonucleotide with LIPOFECTIN, RNA 24 h after addition
In the oligonucleotide strings, read from the 5' end, every base follows the letter of its sugar. An asterisk marks phosphorothioate; unmarked linkages are phosphodiester. Other units and linkages are bracketed, terminal groups are in braces. A string of capitals states the bases alone. d = 2'-deoxy (DNA)
Exercise: for every item that follows, state its recorded % mRNA INHIBITION.

Please review the entries below; each comes with its answer.
ISIS 12779: phosphorothioate oligodeoxynucleotide GACCATGGCTCCACCGCCAA, SEQ ID NO 4, targets RPA70 AUG 0056-0075 (dG*dA*dC*dC*dA*dT*dG*dG*dC*dT*dC*dC*dA*dC*dC*dG*dC*dC*dA*dA) : 65%
ISIS 12790: phosphorothioate oligodeoxynucleotide TGGTCTGCAGTTAGGGTCAG, SEQ ID NO 15, 3'-UTR 2230-2249, non-allele specific (DNA, all phosphorothioate, methylation of C not given here) : 94%
ISIS 12787: phosphorothioate oligodeoxynucleotide GAGCGTATTTTCCTTTGCCT, SEQ ID NO 12, 3'-UTR 2080-2099 (dG*dA*dG*dC*dG*dT*dA*dT*dT*dT*dT*dC*dC*dT*dT*dT*dG*dC*dC*dT; antisense) : 82%

For the next question, use this substance.
Given item ISIS 12780: phosphorothioate oligodeoxynucleotide TGGCCGACCATGGCTCCACC, SEQ ID NO 5, targets RPA70 AUG 0061-0080 (dT*dG*dG*dC*dC*dG*dA*dC*dC*dA*dT*dG*dG*dC*dT*dC*dC*dA*dC*dC) , the value recorded as its % mRNA INHIBITION is 8200%

====

Test system: RPA70 mRNA
Assay: RPA70 mRNA expression in A549 cells, Northern blot
Assay type: cell-based, human
Details: 400 nM oligonucleotide with LIPOFECTIN, RNA 24 h after addition
In the oligonucleotide strings, read from the 5' end, every base follows the letter of its sugar. An asterisk marks phosphorothioate; unmarked linkages are phosphodiester. Other units and linkages are bracketed, terminal groups are in braces. A string of capitals states the bases alone. d = 2'-deoxy (DNA)
% mRNA INHIBITION of 60% or higher: criterion met. Under 60%: criterion not met.

Exercise: Item ISIS 12789: phosphorothioate oligodeoxynucleotide TGACTTACGACATAATTCCT, SEQ ID NO 14, 3'-UTR 2210-2229 (dT*dG*dA*dC*dT*dT*dA*dC*dG*dA*dC*dA*dT*dA*dA*dT*dT*dC*dC*dT; antisense) with % mRNA INHIBITION of 60% or above?
Key: criterion not met

====

Exercise: for every item that follows, state its recorded % mRNA INHIBITION.
Tested on: RPA70 mRNA
Assay: RPA70 mRNA expression in A549 cells, Northern blot
Assay type: cell-based, human
Conditions: 400 nM oligonucleotide with LIPOFECTIN, RNA 24 h after addition
In the oligonucleotide strings, read from the 5' end, every base follows the letter of its sugar. An asterisk marks phosphorothioate; unmarked linkages are phosphodiester. Other units and linkages are bracketed, terminal groups are in braces. A string of capitals states the bases alone. d = 2'-deoxy (DNA)
Answers are plain numbers, in %.

Please review the entries below; each comes with its answer.
ISIS 12781: phosphorothioate oligodeoxynucleotide TAGCTTCAGCAGACTCCTGG, SEQ ID NO 6, coding 1665-1684, complementary to T variance at 1674 (dT*dA*dG*dC*dT*dT*dC*dA*dG*dC*dA*dG*dA*dC*dT*dC*dC*dT*dG*dG) : 76
ISIS 12785: phosphorothioate oligodeoxynucleotide CTGCACTGTGTAGCTAACAT, SEQ ID NO 10, 3'-UTR 2001-2020 (dC*dT*dG*dC*dA*dC*dT*dG*dT*dG*dT*dA*dG*dC*dT*dA*dA*dC*dA*dT; antisense) : 80
ISIS 12788: phosphorothioate oligodeoxynucleotide CAGAGGGAGTGACTGGTCTT, SEQ ID NO 13, 3'-UTR 2155-2174 (dC*dA*dG*dA*dG*dG*dG*dA*dG*dT*dG*dA*dC*dT*dG*dG*dT*dC*dT*dT; antisense) : 57
ISIS 12778: phosphorothioate oligodeoxynucleotide CCCACCCGGGTCCCGCGCCG, SEQ ID NO 3, targets RPA70 5'-UTR 0001-0020 (dC*dC*dC*dA*dC*dC*dC*dG*dG*dG*dT*dC*dC*dC*dG*dC*dG*dC*dC*dG) : 79

For the next question, use this substance.
Given item ISIS 12791: phosphorothioate oligodeoxynucleotide ATGGGGGGGGGTGGTCACCA, SEQ ID NO 16, 3'-UTR 2287-2306 (antisense; DNA, all phosphorothioate, methylation of C not given here) , the value recorded as its % mRNA INHIBITION is 12
